The origin of these recorded values is paper PMC5914052.

Measured concentration at 8 h, listed per entry for reference.
Experiment: Pharmacokinetics after i.p. delivery: blood and brain concentration by HPLC/MS
Assay type: in vivo, CD-1 mice
Conditions: mouse, plasma, ip; tumor-free CD-1 mice, 25 mg/Kg i.p., 8 h; read-out: Blood concentration
Please answer using the number first and the unit second.

# smilesRecord, propertyName, result
records = [
    ("Cn1c(=O)n(-c2ccc(C(C)(C)C#N)cc2)c2c3cc(-c4cnc5ccccc5c4)ccc3ncc21", "concentration at 8 h", "12 nM"),
]

concentration at 8 h measured on "C[C@@H]1COCCN1c1cc(C2([S@](C)(=N)=O)CC2)nc(-c2cc[nH]c3nccc2-3)n1" = 40 nM

---

Assay: Pharmacokinetics after i.p. delivery: blood and brain concentration by HPLC/MS
Assay type: in vivo, CD-1 mice
Details: mouse, plasma, ip; tumor-free CD-1 mice, 25 mg/Kg i.p., 2 h; read-out: Blood concentration
propertyName: concentration at 2 h (nM)
Quick reminder: number only, in nM, skip the unit.

concentration at 2 h measured on "C[C@@H]1COCCN1c1cc(C2([S@](C)(=N)=O)CC2)nc(-c2cc[nH]c3nccc2-3)n1" = 1480

concentration at 2 h measured on "Cn1c(=O)n(-c2ccc(C(C)(C)C#N)cc2)c2c3cc(-c4cnc5ccccc5c4)ccc3ncc21" = 32

---

Assay: Pharmacokinetics after i.p. delivery: blood and brain concentration by HPLC/MS
Type: in vivo, CD-1 mice
Settings: mouse, plasma, ip; tumor-free CD-1 mice, 25 mg/Kg i.p., 6 h; read-out: Blood concentration
Description: Tumor-free 8-weeks old CD-1 mice (Envigo, http://www.envigo.com) were inoculated i.p. with 25 mg/Kg body weight of NVP-BEZ235 or AZD6738. 1, 2, 6 and 8 h later, blood was collected by retro-orbital bleeding after which the mice were euthanized by CO2 asphyxiation and the brains explanted. Blood and brain samples were then extracted and NVP-BEZ235 and AZD6738 concentrations determined by High Performance Liquid Chromatography (HPLC)/mass spectrometry (MS) as described. […]
propertyName: concentration at 6 h (µM)
Quick reminder: number only, in µM, skip the unit.

# smilesRecord, units, number
measured = [
    ("Cn1c(=O)n(-c2ccc(C(C)(C)C#N)cc2)c2c3cc(-c4cnc5ccccc5c4)ccc3ncc21", "µM", 0.028),
]

Now for a further molecule.
concentration at 6 h measured on "C[C@@H]1COCCN1c1cc(C2([S@](C)(=N)=O)CC2)nc(-c2cc[nH]c3nccc2-3)n1" = 0.14

---

Experiment: Pharmacokinetics after i.p. delivery: blood and brain concentration by HPLC/MS
Format: in vivo, CD-1 mice
Details: mouse, brain, ip; tumor-free CD-1 mice, 25 mg/Kg i.p., 8 h; read-out: Brain concentration
propertyName: concentration at 8 h
Please answer using the number first and the unit second.

# smilesRecord, result
data = [
    ("C[C@@H]1COCCN1c1cc(C2([S@](C)(=N)=O)CC2)nc(-c2cc[nH]c3nccc2-3)n1", "9 nM"),
]

Now for a further compound.
concentration at 8 h measured on "Cn1c(=O)n(-c2ccc(C(C)(C)C#N)cc2)c2c3cc(-c4cnc5ccccc5c4)ccc3ncc21" = 12 nM

---

Measured concentration at 6 h, listed per entry for reference.
Experiment: Pharmacokinetics after i.p. delivery: blood and brain concentration by HPLC/MS
Assay type: in vivo, CD-1 mice
Settings: mouse, brain, ip; tumor-free CD-1 mice, 25 mg/Kg i.p., 6 h; read-out: Brain concentration
Quick reminder: number only, in nM, skip the unit.

# smilesRecord, propertyName, units, number
measured = [
    ("C[C@@H]1COCCN1c1cc(C2([S@](C)(=N)=O)CC2)nc(-c2cc[nH]c3nccc2-3)n1", "concentration at 6 h", "nM", 80),
]

concentration at 6 h measured on "Cn1c(=O)n(-c2ccc(C(C)(C)C#N)cc2)c2c3cc(-c4cnc5ccccc5c4)ccc3ncc21" = 44
